# System: SK-MEL-28 melanoma
# assay.method.text: NCI tumour cell line growth inhibition, 48 h
endpoint.name: GI50

Example entries and their recorded answers appear below.
- molecule: "CN(c1ccc(Cl)c(Cl)c1)c1cnc2cc(N)cc(N)c2n1"
  assay.target: "SK-MEL-28 melanoma"
  endpoint.name: "GI50"
  recorded.value: "2.98 µM"
- molecule: "COC1=C(C)C(=O)N2[C@@H]1[C@H](c1ccccc1)OC21C=CC(=O)C=C1"
  assay.target: "SK-MEL-28 melanoma"
  endpoint.name: "GI50"
  recorded.value: "1.2 µM"
- molecule: "COc1cc(Nc2ncc3c(C)nc(-c4cccc(C(F)(F)F)c4)n3n2)cc(OC)c1OC"
  assay.target: "SK-MEL-28 melanoma"
  endpoint.name: "GI50"
  recorded.value: "4.44 µM"
- molecule: "COc1ccc(-c2cc(C(=O)N3N=C(c4ccc(N)cc4)CC3c3ccc(Cl)cc3)c3ccccc3n2)cc1 (stereo not drawn)"
  assay.target: "SK-MEL-28 melanoma"
  endpoint.name: "GI50"
  recorded.value: "3.78 µM"
- molecule: "O=[N+]([O-])c1cc([N+](=O)[O-])c(NN=C(c2ccc(O)cc2)c2ccc(O)cc2)cc1Cl"
  assay.target: "SK-MEL-28 melanoma"
  endpoint.name: "GI50"
  recorded.value: "0.685 µM"
- molecule: "CO[C@H]1/C=C/[C@@](C)(O)/C=C/C(=O)O[C@H](C)[C@@H](C)CC/C=C/1C"
  assay.target: "SK-MEL-28 melanoma"
  endpoint.name: "GI50"
  recorded.value: "16.9 µM"
- molecule: "CN(c1ccc(C(=O)O)cc1)c1cc(O/N=[N+](\\[O-])N(C)C)c([N+](=O)[O-])cc1[N+](=O)[O-]"
  assay.target: "SK-MEL-28 melanoma"
  endpoint.name: "GI50"
  recorded.value: "21 µM"
- molecule: "O=C(/C=C/c1c(-c2ccccc2)[nH]c2ccccc12)S(=O)(=O)c1ccccc1"
  assay.target: "SK-MEL-28 melanoma"
  endpoint.name: "GI50"
  recorded.value: "27.1 µM"

Hi, could you look up GI50 for each item in my list?
1. COc1cc(Nc2cc(O)c3c(=O)cc(-c4ccccc4)oc3c2)cc(OC)c1
2. CSc1ccc(C2=NN(c3ccccc3)C(c3ccc(-c4cc(Cl)c(Cl)cc4Cl)o3)C2)cc1 (stereo not drawn)
3. COc1ccc(/C=C/C(=O)c2c(O)c(C)c(O)c3c2OC2=CC(O)=C(C(C)=O)C(=O)[C@]23C)cc1
4. N#Cc1cc(-c2ccnc(Nc3ccc(NC(=O)CCl)cc3)n2)ccc1N1CCCC1
5. CCCCc1ccc(NS(=O)(=O)c2cc3c4c(c2)CCN4C(=O)CC3)cc1

Out:
1. 2.84 µM
2. > 100 µM
3. 1.15 µM
4. 4.28 µM
5. 39.3 µM

Where do these numbers come from? They come from PubChem BioAssay (NCI).
